# assay-target: LAR (Homo sapiens)
# Sequence (P10586 1352-1607): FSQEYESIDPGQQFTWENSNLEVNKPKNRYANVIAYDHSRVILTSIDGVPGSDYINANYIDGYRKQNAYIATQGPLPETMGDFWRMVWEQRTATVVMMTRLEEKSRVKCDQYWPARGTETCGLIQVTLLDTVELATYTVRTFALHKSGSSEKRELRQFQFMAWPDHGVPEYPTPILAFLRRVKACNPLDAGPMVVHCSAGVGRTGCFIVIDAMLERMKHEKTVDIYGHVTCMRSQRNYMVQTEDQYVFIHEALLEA
quantity-measured: pIC50
Interpret pIC50 as the negative base-10 log of the concentration measured in mol/L.

Using known records, supply pIC50 for COc1c(C=O)c2c(c3c1CC(C)(C)C3)C(=O)OC(O)C2 (stereo not shown)
4.26

====

Lab note: pIC50 readings collected with PTPRD (Homo sapiens) for the following compounds.
Sequence (P23468 1357-1612): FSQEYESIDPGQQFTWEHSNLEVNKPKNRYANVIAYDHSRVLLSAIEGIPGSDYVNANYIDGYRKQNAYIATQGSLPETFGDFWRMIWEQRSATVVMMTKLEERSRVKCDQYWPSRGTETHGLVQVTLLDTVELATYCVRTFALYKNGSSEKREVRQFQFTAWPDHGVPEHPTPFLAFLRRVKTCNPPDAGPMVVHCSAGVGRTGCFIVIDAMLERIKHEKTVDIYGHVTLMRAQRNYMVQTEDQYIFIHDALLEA
pIC50 here is simply -log10 of the concentration when that concentration is written in mol/L.

CC1(C)Cc2c(O)c(C=O)c3c(c2C1)C(=O)OC(O)C3 (centres unmarked) [illudalic acid, reference compound] :: 7.05

Given O=Cc1c2c(c3cc(F)c(F)cc3c1O)C(=O)OC(O)C2 (centres unmarked) [IA3-89F] , respond with its pIC50.
7.29
